Listing: Hill slope of selected substances
molecular target: human calcitonin CGRP1 (CGRP1) membrane (Homo sapiens, UniProt O60894+Q16602); construct: purchased Perkin Elmer (Waltham, Mass.); type: binding; conditions: 0.24 nM [125I]-CGRP; Mean±SD
Sequence (O60894 27-148): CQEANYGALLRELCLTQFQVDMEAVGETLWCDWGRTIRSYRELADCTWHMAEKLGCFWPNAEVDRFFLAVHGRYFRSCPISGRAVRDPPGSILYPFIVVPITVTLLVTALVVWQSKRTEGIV
Sequence (Q16602 23-461): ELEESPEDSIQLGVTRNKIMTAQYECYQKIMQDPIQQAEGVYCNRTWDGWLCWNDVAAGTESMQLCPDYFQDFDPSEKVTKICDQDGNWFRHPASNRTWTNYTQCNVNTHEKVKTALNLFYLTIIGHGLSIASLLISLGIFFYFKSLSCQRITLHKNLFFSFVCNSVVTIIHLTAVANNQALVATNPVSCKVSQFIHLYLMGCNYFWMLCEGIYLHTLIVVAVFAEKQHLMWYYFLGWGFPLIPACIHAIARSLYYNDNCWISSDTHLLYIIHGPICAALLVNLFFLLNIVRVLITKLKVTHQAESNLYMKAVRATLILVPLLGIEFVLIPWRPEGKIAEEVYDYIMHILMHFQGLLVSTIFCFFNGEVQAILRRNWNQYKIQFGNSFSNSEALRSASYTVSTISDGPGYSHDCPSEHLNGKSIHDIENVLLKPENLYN
quantity name: Hill slope

# substance, measured target, measurement
rows = [
    ("H-NFAPTNVGPFAF-NH2 [AFA- peptide 10, NH2-N-F-A-P-T-N-V-G-P-F-A-F-CONH2]", "human calcitonin CGRP1 (CGRP1) membrane (Homo sapiens, UniProt O60894+Q16602)", 1.07),
    ("H-NLVPTNVGPFAF-NH2 [AFA- peptide 8, NH2-N-L-V-P-T-N-V-G-P-F-A-F-CONH2]", "human calcitonin CGRP1 (CGRP1) membrane (Homo sapiens, UniProt O60894+Q16602)", 0.88),
    ("H-NFIPTNVGPFAF-NH2 [AFA- peptide 6, NH2-N-F-I-P-T-N-V-G-P-F-A-F-CONH2]", "human calcitonin CGRP1 (CGRP1) membrane (Homo sapiens, UniProt O60894+Q16602)", 1.13),
    ("H-NFVPTNVGPFAF-NH2 [AFA-peptide 3, NH2-N-F-V-P-T-N-V-G-P-F-A-F-CONH2]", "human calcitonin CGRP1 (CGRP1) membrane (Homo sapiens, UniProt O60894+Q16602)", 1.20),
]

meta.source: patent US10287337B2
